B1: library; numbered along this chain (parent)
chain: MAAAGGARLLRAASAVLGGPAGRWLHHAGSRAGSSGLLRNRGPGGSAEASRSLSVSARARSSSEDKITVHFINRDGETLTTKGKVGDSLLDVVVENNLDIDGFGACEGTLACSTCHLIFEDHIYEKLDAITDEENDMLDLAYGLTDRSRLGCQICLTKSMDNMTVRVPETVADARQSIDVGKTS

Variants of: B1
Test: scaled log2 fold change in cell abundance, elesclomol vs control (0 = silent mean, 1 = nonsense mean) (scaled log2 ratio); higher = higher viability under elesclomol (loss of FDX1 cuproptosis function);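 also: variant abundance is its share of total variant reads in each endpoint sample, from next-generation sequencing of the integrated ORF PCR-amplified out of genomic DNA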
Conditions: with HEK293T FDX1 KO; elesclomol 40 nM; glucose 10 mM; 11 days
The following variants are shown together with reported scaled log2 fold change values.

Some variants with known scaled log2 fold change results, for comparison:
| VARIANT ANNOTATION | OBS VALUE |
| --- | --- |
| I100M | -0.526 |
| A141Q | 0.9 |
| L156R | 1.1 |
| V93L | 0.422 |
| K158N | -0.562 |

Problem: Could you share which scaled log2 fold change value was measured for R175C ?
Solution: 0.45

Problem: Now give it for L53F too.
Solution: -0.0243

Problem: Another: C106H
Solution: 1

Problem: Likewise for L156D ?
Solution: 0.926

Problem: Note, next up: S61N
Solution: -0.556

Problem: Param item: A174E
Solution: 0.0347

These measurements were taken from the supplement of paper PMC12855868.
